# Experimental Details: Selectivity index, ratio of CC50 for human Huh-7 cells to IC50 for antiviral activity against HCoV-229E harboring luciferase reporter gene infected in human Huh-7 cells
# Type: toxicity, cell-based
# Run Conditions: read-out: Ratio CC50/IC50
Readout Kind: selectivity ratio
// return a plain number; no unit text

Prompt line: Quick check: selectivity ratio of C=C(C=O)[C@H]1CC=C2[C@H](OC(=O)/C(C)=C/CCCCCCC)CC[C@H](C(=O)O)[C@@]2(C)C1 ?
Response line: 2.57
